System: HCC1599
Assay: normalised viability (% of control), CellTiter-Blue; higher = more viable cells (about 100 = DMSO control)
Settings: 10 nM; incubation time: 72 h

[
  {
    "compound": "CC(=O)c1c(C)c2cnc(Nc3ccc(N4CCNCC4)cn3)nc2n(C2CCCC2)c1=O",
    "system under test": "HCC1599",
    "unit tag": "%",
    "normalised viability": 93.3
  },
  {
    "compound": "Cn1cc(C2=Nc3cc(NC(=O)C(N)C4CCCCC4)cc4c3C2=CNNC4=O)cn1 (stereo not given)",
    "system under test": "HCC1599",
    "unit tag": "%",
    "normalised viability": 94.6
  },
  {
    "compound": "Cc1sc2c(c1C)C(c1ccc(Cl)cc1)=N[C@@H](CC(=O)OC(C)(C)C)c1nnc(C)n1-2 [(+)JQ1]",
    "system under test": "HCC1599",
    "unit tag": "%",
    "normalised viability": 115
  },
  {
    "compound": "COc1cc2c(cc1O)CC[C@@H]1[C@@H]2CC[C@]2(C)[C@@H](O)CC[C@@H]12",
    "system under test": "HCC1599",
    "unit tag": "%",
    "normalised viability": 97.3
  },
  {
    "compound": "O=C1CN2Cc3c(ccc(Cl)c3Cl)N=C2N1 [Anagrelide]",
    "system under test": "HCC1599",
    "unit tag": "%",
    "normalised viability": 112
  }
]

====

Tested on: SK-BR-3
Settings: 72 h

[
  {
    "compound": "C[C@]1(O)C[C@@H](c2nc(-c3ccc4ccc(-c5ccccc5)nc4c3)c3c(N)nccn32)C1",
    "system under test": "SK-BR-3",
    "unit tag": "nM",
    "EC50, CellTiter-Glo": 1460
  },
  {
    "compound": "CC(C)(C)c1cnc(CSc2cnc(NC(=O)C3CCNCC3)s2)o1",
    "system under test": "SK-BR-3",
    "unit tag": "nM",
    "EC50, CellTiter-Glo": 61.4
  },
  {
    "compound": "Cc1sc2c(c1C)C(c1ccc(Cl)cc1)=N[C@@H](CC(=O)OC(C)(C)C)c1nnc(C)n1-2 [(+)JQ1]",
    "system under test": "SK-BR-3",
    "unit tag": "nM",
    "EC50, CellTiter-Glo": 494
  },
  {
    "compound": "CC(=O)c1c(C)c2cnc(Nc3ccc(N4CCNCC4)cn3)nc2n(C2CCCC2)c1=O",
    "system under test": "SK-BR-3",
    "unit tag": "nM",
    "EC50, CellTiter-Glo": 2240
  }
]

====

Tested on: BT-549
Assay: normalised viability (% of control), CellTiter-Blue; higher = more viable cells (about 100 = DMSO control)
Conditions: 10000 nM; incubation time: 72 h
observed property: normalised viability (%)

[
  {
    "compound": "CC(C)(C)c1cnc(CSc2cnc(NC(=O)C3CCNCC3)s2)o1 [SNS-032]",
    "unit tag": "%",
    "measured value": 9.46
  },
  {
    "compound": "O=NN(CCCl)C(=O)NCCCl [Carmustine]",
    "unit tag": "%",
    "measured value": 103
  },
  {
    "compound": "CC1(C)CNc2cc(NC(=O)c3cccnc3NCc3ccncc3)ccc21 [Motesanib]",
    "unit tag": "%",
    "measured value": 79.2
  },
  {
    "compound": "Nc1ncn([C@@H]2O[C@H](CO)[C@@H](O)[C@H]2O)c(=O)n1 [Azacitidine]",
    "unit tag": "%",
    "measured value": 48.7
  },
  {
    "compound": "Cc1sc2c(c1C)C(c1ccc(Cl)cc1)=N[C@@H](CC(=O)OC(C)(C)C)c1nnc(C)n1-2 [(+)JQ1]",
    "unit tag": "%",
    "measured value": 36.9
  }
]

Just for reference, the supplement of paper PMC4862054 is where these values come from.
